Listing: log10 EC50 of selected compounds
# SYSTEM UNDER TEST: PPARγ-RXRα heterodimer (Homo sapiens, UniProt P37231)
# Sequence (P37231 1-477 isoform P37231-2): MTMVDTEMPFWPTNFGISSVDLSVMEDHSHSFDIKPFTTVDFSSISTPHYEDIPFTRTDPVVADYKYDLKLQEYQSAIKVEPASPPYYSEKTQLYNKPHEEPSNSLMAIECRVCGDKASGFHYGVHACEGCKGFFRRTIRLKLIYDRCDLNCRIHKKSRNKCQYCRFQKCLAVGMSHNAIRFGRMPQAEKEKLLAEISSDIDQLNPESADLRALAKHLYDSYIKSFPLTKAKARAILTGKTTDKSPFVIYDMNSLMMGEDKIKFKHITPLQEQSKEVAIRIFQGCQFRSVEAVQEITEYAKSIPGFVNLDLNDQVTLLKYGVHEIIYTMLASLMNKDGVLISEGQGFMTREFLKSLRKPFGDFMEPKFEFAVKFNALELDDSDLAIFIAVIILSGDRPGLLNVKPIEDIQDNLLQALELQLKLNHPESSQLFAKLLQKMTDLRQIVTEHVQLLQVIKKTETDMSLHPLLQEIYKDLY
# Sequence (P19793 1-462 partner): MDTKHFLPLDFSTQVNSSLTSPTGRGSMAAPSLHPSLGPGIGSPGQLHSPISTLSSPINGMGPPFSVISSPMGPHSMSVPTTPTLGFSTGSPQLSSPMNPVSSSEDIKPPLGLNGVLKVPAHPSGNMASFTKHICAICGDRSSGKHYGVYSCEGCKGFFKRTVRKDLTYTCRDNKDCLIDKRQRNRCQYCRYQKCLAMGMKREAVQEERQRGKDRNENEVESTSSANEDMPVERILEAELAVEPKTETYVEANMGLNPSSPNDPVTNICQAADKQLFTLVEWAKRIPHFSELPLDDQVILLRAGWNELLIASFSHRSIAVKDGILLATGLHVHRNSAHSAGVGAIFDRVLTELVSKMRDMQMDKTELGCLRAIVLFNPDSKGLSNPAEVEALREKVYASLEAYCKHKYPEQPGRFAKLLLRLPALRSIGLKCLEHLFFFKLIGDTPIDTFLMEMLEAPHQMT
# METHOD SUMMARY: PPARγ-RXRα heterodimer ligand activity (luciferase reporter, PPARγ:RXRα:4ERPP/CHO-K1 cells)
# TEST SETTINGS: concentration showing 50% of the maximum luciferase induction rate; CHO-K1 reporter cells, one day incubation
EXPERIMENTAL ENDPOINT: log10 EC50 (log10 of the value in nM)

{"columns": ["COMPOUND", "RESULT"],
 "data": [
  ["CCCCCS(=O)(=O)NC(=O)/C(=C/c1ccc(OCCOC)cc1Oc1ncc(C(F)(F)F)cc1Cl)CC [Example 183]", 0.58],
  ["CCCCCS(=O)(=O)NC(=O)CCc1cc(OCCCC)nn1Cc1ccc(Cl)cc1Cl [Example 97]", 0.88],
  ["COCCOc1ccc(/C=C/COC(=O)NS(=O)(=O)c2ccc(Cl)cc2)c(Oc2ncc(C(F)(F)F)cc2Cl)c1 [Example 37, dihydrate]", 1.32],
  ["CCCCCS(=O)(=O)NC(=O)/C=C/c1cc(OC(C)C)nn1Cc1ncc(C(F)(F)F)cc1Cl [Example 199]", 1.11],
  ["CCCCCS(=O)(=O)NC(=O)/C=C/c1ccc(OCCC(C)(C)O)cc1Oc1ncc(C(F)(F)F)cc1Cl [Example 248]", 1.26],
  ["CC(C)CCS(=O)(=O)NC(=O)/C=C/c1cc(OCC2CC2)nn1Cc1ccc(C(F)(F)F)cc1Cl [Example 26]", 0.66],
  ["COCCOc1ccc(/C=C/COC(=O)NS(=O)(=O)N2CCCC2)c(Oc2ncc(C(F)(F)F)cc2Cl)c1 [Example 437]", 1.73]
]}
